Tested on: batrachotoxin (BTX) binding site of the sodium channel
protocol: Affinity to the batrachotoxin (BTX) binding site of the sodium channel
Design: species or system rat
experimental-context: [3H]-batrachotoxinin A20 α-benzoate 10 nM; synaptosomes from rat cerebral cortex; test concentration not given
Kindly state BTX inhibition (rat) (% inhibition) for each of the entries shown.
Just the number please, in %, no unit attached.

Consider the compound CN(C(=O)c1cccc(Cl)c1)c1nc2n(c1C(=O)NCCc1cccc(C(F)(F)F)c1)CCCC2 [Example 71] and give its measured BTX inhibition (rat) (% inhibition).
36

Next compound: CCCCN(C(=O)c1cccc(Cl)c1)c1nc2n(c1C(=O)N1CCN(c3cccc(C(F)(F)F)c3)CC1)CCCC2 [Example 79]
83

Next compound: CCCCN(C(=O)c1ccc(F)c(F)c1)c1nc2n(c1C(=O)N1CCN(c3ccc(C(F)(F)F)cn3)CC1)CCCC2 [Example 187]
41

Next compound: CN(C(=O)c1cccc(Cl)c1)c1nc2n(c1C(=O)NC1CCCCC1OCc1ccccc1)CCCC2 (stereo not drawn) [Example 67]
51

Next compound: CN(C(=O)c1ccccc1)c1nc2n(c1C(=O)N1CCN(c3ccc(C(F)(F)F)cc3)CC1)CCCC2 [Example 167]
44

Next compound: CN(C(=O)c1cccc2ccccc12)c1nc2n(c1C(=O)N1CCN(CC=Cc3ccccc3)CC1)CCCC2 [Example 173]
74

Next compound: CCCCN(C(=O)c1cccc(Cl)c1)c1nc2n(c1C(=O)NC(C)c1ccc3ccccc3c1)CCCC2 (stereo not drawn) [Example 141]
41

Next compound: CCCCN(C(=O)c1ccc(F)c(F)c1)c1nc2n(c1C(=O)N(C)C1CCN(Cc3cc4ccccc4o3)C1)CCCC2 (stereo not drawn) [Example 34]
83

Next compound: CCCCN(C(=O)c1cccc(Cl)c1)c1nc2n(c1C(=O)Nc1ccc(C(C)(C)C)cc1)CCCC2 [Example 152]
92

Next compound: CN(C(=O)c1cccc2ccccc12)c1nc2n(c1C(=O)N1CCN(Cc3cc4ccccc4o3)CC1)CCCC2 [Example 108]
41

Next compound: CCCCN(C(=O)c1cccc(Cl)c1)c1nc2n(c1C(=O)N1CCN(Cc3ccc(Cl)cc3)CC1)CCCC2 [Example 140]
81

Next compound: CCCCN(C(=O)c1ccc(F)c(F)c1)c1nc2n(c1C(=O)NC1CCC(C)CC1)CCCC2 (stereo not drawn) [Example 16]
47

Next compound: CCCCN(C(=O)c1ccc(F)c(F)c1)c1nc2n(c1C(=O)N1CCN(c3cc(C)ccc3C)CC1)CCCC2 [Example 138]
80

Next compound: CN(C(=O)c1cccc(Cl)c1)c1nc2n(c1C(=O)N1CCN(CCc3ccccc3)CC1)CCCC2 [Example 106]
40

Next compound: CN(C(=O)c1cccc2ccccc12)c1nc2n(c1C(=O)NC(c1ccccc1)c1ccc(Cl)cc1)CCCC2 (stereo not drawn) [Example 139]
73
